Assay: Stability in serum at 37° C., absorbance and fluorescence after 24 h
Format: in vitro ADME
Conditions: n = 2
MEASURED_QUANTITY: Serum stability after 24 h, remaining absorbance (% remaining)

* CC(=O)SCC(=O)NC(CO)C(=O)NC(CO)C(=O)NC(CO)C(=O)NCCCCCC(=O)NCCCCN1C(=CC=CC=CC2=[N+](CCCCCC(=O)NCCCCC(NC(=O)NC(CCC(=O)O)C(=O)O)C(=O)O)c3ccccc3C2(C)C)C(C)(C)c2cc(S(=O)(=O)[O-])ccc21 (centres unmarked) [EuK-Cy5-(SO3)MAS3] | 82
* CC(=O)SCC(=O)NC(CO)C(=O)NC(CO)C(=O)NC(CO)C(=O)NCCCCCC(=O)NCCCCN1C(=CC=CC=CC2=[N+](CCCCCC(=O)NCCCCC(NC(=O)NC(CCC(=O)O)C(=O)O)C(=O)O)c3ccccc3C2(C)C)C(C)(C)c2c1ccc1ccccc21 (centres unmarked) | 75
